# System: Rattus norvegicus
# Assay Method Text: The duration of action is expressed as the time for the % inhibition of pressor response to fall below 30% for a single bolus of the drug administered perorally.
# Assay type: functional
Binary call on Duration: yes (1) from 4 h upward, no (0) beneath that.

# example entries with known answers
{"Smiles String": "CCCCc1nc2ccccc2c(=O)n1Cc1ccc(-c2ccccc2-c2nn[nH]n2)cc1", "Measurement Target": "Rattus norvegicus", "Class": "no (0)"}
{"Smiles String": "CCCCc1nc2ccc(N)cc2c(=O)n1Cc1ccc(-c2ccccc2-c2nn[nH]n2)cc1", "Measurement Target": "Rattus norvegicus", "Class": "no (0)"}
{"Smiles String": "CCCCc1nc2ccc(C)cc2c(=O)n1Cc1ccc(-c2ccccc2-c2nn[nH]n2)cc1", "Measurement Target": "Rattus norvegicus", "Class": "yes (1)"}
{"Smiles String": "CCCCc1nc2ccc(N(C)C(=O)OCC(C)C)cc2c(=O)n1Cc1ccc(-c2ccccc2-c2nn[nH]n2)cc1", "Measurement Target": "Rattus norvegicus", "Class": "no (0)"}
{"Smiles String": "CCCCc1nc2ccc(C(C)C)cc2c(=O)n1Cc1ccc(-c2ccccc2-c2nn[nH]n2)cc1", "Measurement Target": "Rattus norvegicus", "Class": "yes (1)"}

Pending molecule:
Could you tell me if the measured Duration of `CCCCc1nc2ccc(NC(=O)NC(C)C)cc2c(=O)n1Cc1ccc(-c2ccccc2-c2nn[nH]n2)cc1` reaches 4 h or more?
no (0)

---

# Measurement Target: UniProt:P34976
# Assay Method Text: Ability to displace [125I]Sar1-Ile8-AII from angiotensin II receptor, type 1 in rabbit aorta in presence of 0.2% bovine serum albumin (BSA) was determined in vitro
# Format: tissue-based
Readout Type: pIC50
One number for each entry, as −log10 of the molar value.

Use the examples below as a reference point.
{"Smiles String": "CCCCc1nc2ccc(O)cc2c(=O)n1Cc1ccc(-c2ccccc2-c2nnn[nH]2)cc1", "pIC50": 7.57}
{"Smiles String": "CCCCc1nc2ccc(NC(=O)OCC(C)C)cc2c(=O)n1Cc1ccc(-c2ccccc2-c2nnn[nH]2)cc1", "pIC50": 8.19}
{"Smiles String": "CCCCc1nc2ccc(NCc3ccccc3)cc2c(=O)n1Cc1ccc(-c2ccccc2-c2nn[nH]n2)cc1", "pIC50": 8.10}

Batch request: pIC50 for each of the following compounds.
1. CCCCc1nc2ccccc2c(=O)n1Cc1ccc(-c2ccccc2-c2nn[nH]n2)cc1
2. CCCCc1nc2ccc(S(C)(=O)=O)cc2c(=O)n1Cc1ccc(-c2ccccc2-c2nn[nH]n2)cc1

[8.22, 8.52]

---

# Measurement Target: Angiotensin II receptor (Rattus norvegicus) (UniProt P29089+P25095+P35351)
# Assay Method Text: Duration of action as time for pressor response to fall below 30% for a single bolus by intravenous dose
# Type: functional, organism-based
Can you tell me Duration for the items I'm about to list?
Answers are plain numbers, in h.

Batch request: Duration for each of the following compounds.
1. CCCCc1nc2ccc(SC)cc2c(=O)n1Cc1ccc(-c2ccccc2-c2nn[nH]n2)cc1
2. CCCCc1nc2ccc(NC(C)=O)cc2c(=O)n1Cc1ccc(-c2ccccc2-c2nn[nH]n2)cc1
3. CCCCc1nc2ccc(OC(=O)NC(C)C)cc2c(=O)n1Cc1ccc(-c2ccccc2-c2nn[nH]n2)cc1
4. CCCCc1nc2ccc(N(C)C(=O)N(C)C(C)C)cc2c(=O)n1Cc1ccc(-c2ccccc2-c2nn[nH]n2)cc1
5. CCCCc1nc2ccc(NC)cc2c(=O)n1Cc1ccc(-c2ccccc2-c2nn[nH]n2)cc1
6. CCCCc1nc2ccc(N(C)C(=O)OCc3ccccc3)cc2c(=O)n1Cc1ccc(-c2ccccc2-c2nn[nH]n2)cc1

1. 0.1
2. 0.9
3. 0
4. 0.8
5. 1.2
6. 0

---

# Measurement Target: Type-2 angiotensin II receptor (Homo sapiens) (UniProt P50052)
# Sequence (P50052 whole entry): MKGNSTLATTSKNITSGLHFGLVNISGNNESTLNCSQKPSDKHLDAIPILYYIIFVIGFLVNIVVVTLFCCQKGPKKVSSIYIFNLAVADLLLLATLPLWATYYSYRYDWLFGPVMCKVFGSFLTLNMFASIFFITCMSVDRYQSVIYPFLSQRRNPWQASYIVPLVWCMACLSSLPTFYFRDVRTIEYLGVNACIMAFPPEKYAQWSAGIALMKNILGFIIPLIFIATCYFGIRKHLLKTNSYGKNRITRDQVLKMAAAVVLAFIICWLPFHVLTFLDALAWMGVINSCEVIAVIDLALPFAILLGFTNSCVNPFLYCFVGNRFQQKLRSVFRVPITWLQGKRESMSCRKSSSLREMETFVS
# Assay Method Text: In vitro antagonist activity against the Angiotensin II (type 2) receptor.
# Type: functional
Readout Type: Activity

Use the examples below as a reference point.
{"Smiles String": "CCCCc1nc2ccc(C)cc2c(=O)n1Cc1ccc(-c2ccccc2-c2nn[nH]n2)cc1", "Activity": "> 1000 nM"}
{"Smiles String": "CCCCc1nc2ccccc2c(=O)n1Cc1ccc(-c2ccccc2-c2nn[nH]n2)cc1", "Activity": "> 1000 nM"}

Let us move to another entry and its Activity.
Short answer for `CCCCc1nc2ccc(C(C)C)cc2c(=O)n1Cc1ccc(-c2ccccc2-c2nn[nH]n2)cc1` : Activity was > 1000 nM

---

# Measurement Target: Type-1 angiotensin II receptor (Oryctolagus cuniculus, UniProt P34976)
# Assay Method Text: Displacement of [125I]Sar1-Ile8-AII (without BSA) from type 1 Angiotensin II receptor of rabbit aorta
# Format: tissue-based
Readout Type: IC50 (nM)
Give bare numbers, in nM.

Use the examples below as a reference point.
{"Smiles String": "CCCCc1nc2ccc(NC(=O)OCC(C)C)cc2c(=O)n1Cc1ccc(-c2ccccc2-c2nnn[nH]2)cc1", "Measurement Target": "Type-1 angiotensin II receptor (Oryctolagus cuniculus, UniProt P34976)", "Unit Symbol": "nM", "Endpoint Result": 1.6}
{"Smiles String": "CCCCc1nc2ccc(-c3ccc(Cl)cc3)cc2c(=O)n1Cc1ccc(-c2ccccc2-c2nn[nH]n2)cc1", "Measurement Target": "Type-1 angiotensin II receptor (Oryctolagus cuniculus, UniProt P34976)", "Unit Symbol": "nM", "Endpoint Result": 30}
{"Smiles String": "CCCCc1nc2ccc(-c3ccccn3)cc2c(=O)n1Cc1ccc(-c2ccccc2-c2nnn[nH]2)cc1", "Measurement Target": "Type-1 angiotensin II receptor (Oryctolagus cuniculus, UniProt P34976)", "Unit Symbol": "nM", "Endpoint Result": 5}

Short answer for `CCCCc1nc2ccc(N(C)C(=O)N(C)C(C)C)cc2c(=O)n1Cc1ccc(-c2ccccc2-c2nnn[nH]2)cc1` : IC50 was 0.58

---

# Measurement Target: Type-1 angiotensin II receptor (Oryctolagus cuniculus)
# Sequence (P34976 whole entry): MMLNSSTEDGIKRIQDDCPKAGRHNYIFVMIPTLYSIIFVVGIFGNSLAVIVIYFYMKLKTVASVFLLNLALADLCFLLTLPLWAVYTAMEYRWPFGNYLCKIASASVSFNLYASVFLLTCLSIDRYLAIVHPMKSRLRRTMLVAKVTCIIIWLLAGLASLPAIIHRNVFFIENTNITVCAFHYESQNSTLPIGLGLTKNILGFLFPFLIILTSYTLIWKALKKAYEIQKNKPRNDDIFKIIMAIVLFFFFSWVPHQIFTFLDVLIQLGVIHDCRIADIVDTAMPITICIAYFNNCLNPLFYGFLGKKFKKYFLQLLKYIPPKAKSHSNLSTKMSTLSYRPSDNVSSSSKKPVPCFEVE
# Assay Method Text: Ability to displace [125I]Sar1-Ile8-AII from angiotensin II receptor, type 1 in rabbit aorta in presence of 0.2% bovine serum albumin (BSA) was determined in vitro
# Assay type: tissue-based
Can you tell me IC50 for the items I'm about to list?
Numbers only, in nM.

{"Smiles String": "CC(=O)Nc1ccc2nc(-c3ccc(-c4ccccc4C(=O)O)cc3)n(Cc3ccc(-c4ccccc4-c4nn[nH]n4)cc3)c(=O)c2c1", "Measurement Target": "Type-1 angiotensin II receptor (Oryctolagus cuniculus)", "Unit Symbol": "nM", "Endpoint Result": 50}
{"Smiles String": "CCCCc1nc2ccc(NS(=O)(=O)C(F)(F)F)cc2c(=O)n1Cc1ccc(-c2ccccc2-c2nn[nH]n2)cc1", "Measurement Target": "Type-1 angiotensin II receptor (Oryctolagus cuniculus)", "Unit Symbol": "nM", "Endpoint Result": 120}
{"Smiles String": "CCCCc1nc2ccc(NC(=O)NC(C)C)cc2c(=O)n1Cc1ccc(-c2ccccc2-c2nn[nH]n2)cc1", "Measurement Target": "Type-1 angiotensin II receptor (Oryctolagus cuniculus)", "Unit Symbol": "nM", "Endpoint Result": 0.75}

Batch request: IC50 for each of the following molecules.
1. CCCCc1nc2ccc(OC(=O)NC(C)C)cc2c(=O)n1Cc1ccc(-c2ccccc2-c2nn[nH]n2)cc1
2. O=C(O)c1ccccc1-c1ccc(-c2nc3ccc([N+](=O)[O-])cc3c(=O)n2Cc2ccc(-c3ccccc3-c3nnn[nH]3)cc2)cc1
3. CCCCc1nc2ccc(NC)cc2c(=O)n1Cc1ccc(-c2ccccc2-c2nnn[nH]2)cc1

1. 1
2. 940
3. 2

Batch request: IC50 for each of the following molecules.
1. Nc1ccc2nc(-c3ccc(-c4ccccc4C(=O)O)cc3)n(Cc3ccc(-c4ccccc4-c4nn[nH]n4)cc3)c(=O)c2c1
2. CCCCc1nc2ccc(N(C)C)cc2c(=O)n1Cc1ccc(-c2ccccc2-c2nn[nH]n2)cc1

33
5

---

Can you tell me pIC50 for the items I'm about to list?
# Measurement Target: Type-1 angiotensin II receptor (Oryctolagus cuniculus)
# Sequence (P34976 whole entry): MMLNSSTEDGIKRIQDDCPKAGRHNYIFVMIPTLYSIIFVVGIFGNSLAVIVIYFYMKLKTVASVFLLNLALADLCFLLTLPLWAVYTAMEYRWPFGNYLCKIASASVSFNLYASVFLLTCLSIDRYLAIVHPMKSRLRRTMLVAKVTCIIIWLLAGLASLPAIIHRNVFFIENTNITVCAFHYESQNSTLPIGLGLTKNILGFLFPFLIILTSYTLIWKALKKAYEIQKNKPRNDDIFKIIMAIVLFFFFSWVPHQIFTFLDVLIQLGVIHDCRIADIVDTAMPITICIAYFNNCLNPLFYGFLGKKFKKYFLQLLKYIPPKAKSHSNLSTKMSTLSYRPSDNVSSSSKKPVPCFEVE
# Assay Method Text: Ability to displace [125I]Sar1-Ile8-AII from angiotensin II receptor, type 1 in rabbit aorta in presence of 0.2% bovine serum albumin (BSA) was determined in vitro
# Type: tissue-based
Give bare numbers, as −log10 of the molar value.

{"Smiles String": "Cc1ccc2nc(-c3ccc(-c4ccccc4C(=O)O)cc3)n(Cc3ccc(-c4ccccc4-c4nn[nH]n4)cc3)c(=O)c2c1", "Measurement Target": "Type-1 angiotensin II receptor (Oryctolagus cuniculus)", "pIC50": 7.04}

Batch request: pIC50 for each of the following molecules.
1. O=C(O)c1ccccc1-c1ccc(-c2nc3ccccc3c(=O)n2Cc2ccc(-c3ccccc3-c3nn[nH]n3)cc2)cc1
2. CCCCc1nc2ccc(CC)cc2c(=O)n1Cc1ccc(-c2ccccc2-c2nnn[nH]2)cc1

1. 7.70
2. 8.40
